Assay: self-splicing fitness, log relative to wild type (ln ratio); higher = more splicing; Tetrahymena group I intron in knt gene, E. coli kanamycin selection, DiMSum; sequences stand for … in CUCUCU…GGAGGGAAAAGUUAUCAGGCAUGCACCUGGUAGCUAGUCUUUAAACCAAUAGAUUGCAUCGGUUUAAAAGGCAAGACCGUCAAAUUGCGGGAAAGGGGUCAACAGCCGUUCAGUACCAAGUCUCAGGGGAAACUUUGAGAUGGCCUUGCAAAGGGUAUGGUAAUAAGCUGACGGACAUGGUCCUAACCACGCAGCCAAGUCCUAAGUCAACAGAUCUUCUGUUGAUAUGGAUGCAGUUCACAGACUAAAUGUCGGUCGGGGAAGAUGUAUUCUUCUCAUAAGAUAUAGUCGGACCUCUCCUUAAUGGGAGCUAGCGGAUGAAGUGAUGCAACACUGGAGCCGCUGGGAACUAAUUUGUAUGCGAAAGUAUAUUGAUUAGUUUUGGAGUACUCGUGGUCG;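 further: selection with 25 µg/mL kanamycin versus none on LB agar overnight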
Settings: 30 °C
Parameter self-splicing fitness (ln): see the listing below.
measured_endpoint: self-splicing fitness (ln)

# chain_sequence, observed_value
records = [
    ("CAUUAGCAAUAUUACGAACA", -3.7),
    ("AGAAAGCAAUAUUACGUGAG", -1.39),
    ("ACGGAGCAAUAUUACGACAG", -2.34),
    ("GUGCAGCAAUAUUACGGGUG", -3.36),
    ("UGACAGCAAUAUUACGCAGU", -2.63),
    ("CAGAAGCAAUAUUACGGGCG", -0.315),
    ("GAGCAGCAAUAUUACGGGAU", -3.27),
    ("CGAUAGCAAUAUUACGAAAG", -0.907),
    ("UGAAAGCAAUAUUACGCCUA", 0.122),
    ("GAACAGCAAUAUUACGGGUA", -1.54),
    ("CGUCAGCAAUAUUACGUCCG", -1.03),
    ("UGCUAGCAAUAUUACGGAUU", -1.7),
    ("ACGCAGCAAUAUUACGGGCA", -1.08),
    ("CGGAAGCAAUAUUACGUUGC", -3.59),
    ("CACAAGCAAUAUUACGACUU", -3.49),
    ("GUUGAGCAAUAUUACGACAG", -4.09),
    ("CAAAAGCAAUAUUACGCUCA", -1.64),
    ("CACCAGCAAUAUUACGCUUC", -4.12),
    ("UUCUAGCAAUAUUACGUGCA", -1.23),
    ("UUUCAGCAAUAUUACGGAUU", -1.63),
    ("ACGCAGCAAUAUUACGUUGC", -2.7),
    ("AAACAGCAAUAUUACGGUCC", -2.09),
    ("AGUGAGCAAUAUUACGCAUA", -4.2),
    ("CCUCAGCAAUAUUACGAAAU", -3.99),
    ("UAGCAGCAAUAUUACGUAGU", -2.15),
    ("GUGCAGCAAUAUUACGUUUC", -3.02),
    ("AGAAAGCAAUAUUACGACUC", -1.53),
    ("GGAGAGCAAUAUUACGCGAC", -2.83),
    ("UGUUAGCAAUAUUACGUCGU", -3.5),
    ("CCGUAGCAAUAUUACGCGUU", -4.15),
    ("UGAUAGCAAUAUUACGCAAA", -2.25),
    ("CCAUAGCAAUAUUACGCACC", -1),
    ("CUAUAGCAAUAUUACGCAAU", -3.66),
    ("GAGGAGCAAUAUUACGGCAC", -2.08),
    ("CGCAAGCAAUAUUACGUUGG", -2.66),
    ("CUAAAGCAAUAUUACGCUCA", -3.67),
    ("AAAAAGCAAUAUUACGACCG", -0.107),
    ("ACCAAGCAAUAUUACGCUCC", -1.35),
    ("UUUUAGCAAUAUUACGGACG", -0.75),
    ("ACAGAGCAAUAUUACGUUUU", -3.47),
    ("ACGCAGCAAUAUUACGCACA", -0.862),
    ("GCUAAGCAAUAUUACGCUCC", -1.01),
    ("CGACAGCAAUAUUACGUGGA", -3.38),
    ("CCAGAGCAAUAUUACGGGGU", -2.35),
    ("GGGCAGCAAUAUUACGGCCG", -1.5),
    ("AGUCAGCAAUAUUACGUAUU", -1.08),
    ("GUGUAGCAAUAUUACGGUGA", -1.45),
    ("CUGCAGCAAUAUUACGCGCC", -3.33),
    ("UUGCAGCAAUAUUACGUCCG", -1.24),
    ("GCCUAGCAAUAUUACGUGUU", -0.926),
    ("ACCAAGCAAUAUUACGCAUA", -1.77),
    ("GUGAAGCAAUAUUACGGAGU", -1.3),
    ("CGAAAGCAAUAUUACGUAAG", -0.262),
    ("UGUAAGCAAUAUUACGAGUA", -1.48),
    ("UGUAAGCAAUAUUACGGUUU", -2.96),
    ("UCUGAGCAAUAUUACGUAGU", -2.3),
    ("GACAAGCAAUAUUACGGUAC", -2.81),
    ("CGAGAGCAAUAUUACGCAGU", -1.96),
    ("AGCGAGCAAUAUUACGUACU", -0.777),
    ("GAGAAGCAAUAUUACGGCAG", -3.08),
    ("GCAUAGCAAUAUUACGAUAC", -1.47),
]
